# test: Pharmacokinetics in male Swiss Albino mouse, intravenous and oral (LC-MS/MS of plasma)
# Format: in vivo
# cond: male, Swiss Albino, mouse, plasma, iv, 3 mg/kg, mouse, intravenous bolus 3 mg/kg, 12 h, N = 3; read-out: Mean plasma concentration
quantityMeasured: concentration at 12 h (ng/mL)
Express it in ng/mL; write the number only.

Query :: Please report concentration at 12 h for the following compound: C(=NNc1cccc2cccnc12)c1c[nH]c2ccccc12
Result :: 1.29

====

# test: Pharmacokinetics in male Swiss Albino mouse, intravenous and oral (LC-MS/MS of plasma)
# Assay type: in vivo
# cond: male, Swiss Albino, plasma; mouse, IV 3 mg/kg
quantityMeasured: Cmax (ng/mL)
Express it in ng/mL; write the number only.

Query :: Please report Cmax for the following compound: C(=NNc1cccc2cccnc12)c1c[nH]c2ccccc12
Result :: 1690

====

# test: Pharmacokinetics in male Swiss Albino mouse, intravenous and oral (LC-MS/MS of plasma)
# Format: in vivo
# cond: male, Swiss Albino, plasma; mouse, IV 3 mg/kg
quantityMeasured: AUC (ng·h/mL)
Express it in ng·h/mL; write the number only.

Query :: Please report AUC for the following molecule: C(=NNc1cccc2cccnc12)c1c[nH]c2ccccc12
Result :: 913

====

# test: Pharmacokinetics in male Swiss Albino mouse, intravenous and oral (LC-MS/MS of plasma)
# Assay type: in vivo
# cond: male, Swiss Albino, mouse, plasma, oral, 15 mg/kg, mouse, oral solution 15 mg/kg, 8 h, individual mice; LLOQ 1.04 ng/mL; read-out: Individual plasma concentration
quantityMeasured: concentration at 8 h (ng/mL)
Express it in ng/mL; write the number only.

Query :: Please report concentration at 8 h for the following compound: C(=NNc1cccc2cccnc12)c1c[nH]c2ccccc12
Result :: 76.7

====

# test: Pharmacokinetics in male Swiss Albino mouse, intravenous and oral (LC-MS/MS of plasma)
# Format: in vivo
# cond: male, Swiss Albino, mouse, plasma, iv, 3 mg/kg, mouse, intravenous bolus 3 mg/kg, 4 h, individual mice; LLOQ 1.04 ng/mL; read-out: Individual plasma concentration
quantityMeasured: concentration at 4 h (ng/mL)
Express it in ng/mL; write the number only.

Query :: Please report concentration at 4 h for the following molecule: C(=NNc1cccc2cccnc12)c1c[nH]c2ccccc12
Result :: 42.4

====

# test: Pharmacokinetics in male Swiss Albino mouse, intravenous and oral (LC-MS/MS of plasma)
# Assay type: in vivo
# cond: male, Swiss Albino, mouse, plasma, iv, 3 mg/kg, mouse, intravenous bolus 3 mg/kg, 8 h, individual mice; LLOQ 1.04 ng/mL; read-out: Individual plasma concentration
quantityMeasured: concentration at 8 h
Form entry: enter the amount, then its unit.

Query :: Please report concentration at 8 h for the following molecule: C(=NNc1cccc2cccnc12)c1c[nH]c2ccccc12
Result :: 10.1 ng/mL

====

# test: Pharmacokinetics in male Swiss Albino mouse, intravenous and oral (LC-MS/MS of plasma)
# Type: in vivo
# cond: male, Swiss Albino, mouse, plasma, iv, 3 mg/kg, mouse, intravenous bolus 3 mg/kg, 4 h, N = 3; read-out: Mean plasma concentration
quantityMeasured: concentration at 4 h

Query :: Please report concentration at 4 h for the following compound: C(=NNc1cccc2cccnc12)c1c[nH]c2ccccc12
Result :: 35.9 ng/mL

====

# test: Pharmacokinetics in male Swiss Albino mouse, intravenous and oral (LC-MS/MS of plasma)
# Format: in vivo
# cond: male, Swiss Albino, mouse, plasma, iv, 3 mg/kg, mouse, intravenous bolus 3 mg/kg, 0.25 h, individual mice; LLOQ 1.04 ng/mL; read-out: Individual plasma concentration
quantityMeasured: concentration at 0.25 h
Form entry: enter the amount, then its unit.

Query :: Please report concentration at 0.25 h for the following compound: C(=NNc1cccc2cccnc12)c1c[nH]c2ccccc12 [Compound C3]
Result :: 200 ng/mL
